System: Vero C1008
experimentalDetails: Cytotoxicity against African green monkey Vero E6 cells assessed as cell viability at 5 uM incubated for 48 hrs by MTT assay
Assay type: toxicity, cell-based
reportedConditions: chlorocebus sabaeus, vero c1008, 48 h, 5 µM

| smilesRepresentation | Activity |
| --- | --- |
| CCOC(=O)c1c(CSc2ccc(F)cc2)n(C)c2cc(Br)c(O)cc12 | Non-toxic |
| CN1CCC(NC(=O)c2c(CSc3ccc(F)cc3)n(C)c3cc(Br)c(O)cc23)CC1 | Non-toxic |
| CCOC(=O)c1c(CSc2ccc(C)cc2C)n(Cc2cccc3ccccc23)c2cc(Br)c(O)cc12 | Non-toxic |
| CCOC(=O)c1c(CSc2ccc(F)cc2)n(Cc2cccc3ccccc23)c2cc(Br)c(O)cc12 | Non-toxic |
| Cc1ccc(Cn2c(CSc3c(C)cc(C)cc3C)c(C(=O)Nc3cnn(C)c3)c3cc(O)c(Br)cc32)cc1 | Non-toxic |
